system: Salmonella typhimurium; experiment: Antimicrobial activity against Salmonella typhimurium 14028 assessed as bacterial killing measured after 16 hrs incubation; format: functional, Salmonella enterica subsp. enterica serovar Typhimurium; conditions: Salmonella enterica
quantity.measured: log10 of MBC (log10 of the value in µM)

[
  {
    "substance": "H-WKLWLKGGKLWLKGGKLWLKG-NH2",
    "log10 of MBC": 0.90
  },
  {
    "substance": "H-GKLWLKGGKLWLKGGKLWLKA-NH2",
    "log10 of MBC": 0.90
  },
  {
    "substance": "H-AKLWLKGGKLWLKGGKLWLKG-NH2",
    "log10 of MBC": 1.20
  },
  {
    "substance": "H-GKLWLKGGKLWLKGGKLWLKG-NH2",
    "log10 of MBC": 0.60
  },
  {
    "substance": "H-GKLWLKGVKLWLKGGKLWLKG-NH2",
    "log10 of MBC": 0.30
  },
  {
    "substance": "H-GKLWLKGMKLWLKGGKLWLKG-NH2",
    "log10 of MBC": 0.30
  },
  {
    "substance": "H-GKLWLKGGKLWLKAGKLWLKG-NH2",
    "log10 of MBC": 0.60
  },
  {
    "substance": "H-GKLWLKGAKLWLKGGKLWLKG-NH2",
    "log10 of MBC": 0.90
  },
  {
    "substance": "H-GKLWLKGCKLWLKGGKLWLKG-NH2",
    "log10 of MBC": 1.20
  },
  {
    "substance": "H-GKLWLKGGKLWLKGAKLWLKG-NH2",
    "log10 of MBC": 0.60
  },
  {
    "substance": "H-FKLWLKGGKLWLKGGKLWLKG-NH2",
    "log10 of MBC": 1.20
  },
  {
    "substance": "H-GKLWLKGLKLWLKGGKLWLKG-NH2",
    "log10 of MBC": 0.00
  },
  {
    "substance": "H-MKLWLKGGKLWLKGGKLWLKG-NH2",
    "log10 of MBC": 1.20
  },
  {
    "substance": "H-IKLWLKGGKLWLKGGKLWLKG-NH2",
    "log10 of MBC": 0.90
  },
  {
    "substance": "H-VKLWLKGGKLWLKGGKLWLKG-NH2",
    "log10 of MBC": 1.20
  },
  {
    "substance": "H-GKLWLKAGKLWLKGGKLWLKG-NH2",
    "log10 of MBC": 1.20
  },
  {
    "substance": "H-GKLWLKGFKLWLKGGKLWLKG-NH2",
    "log10 of MBC": 0.90
  },
  {
    "substance": "H-GKLWLKGIKLWLKGGKLWLKG-NH2",
    "log10 of MBC": 0.30
  },
  {
    "substance": "H-GKLWLKGWKLWLKGGKLWLKG-NH2",
    "log10 of MBC": 0.60
  },
  {
    "substance": "H-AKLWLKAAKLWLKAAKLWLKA-NH2",
    "log10 of MBC": 0.30
  }
]
